These data points were gathered from paper PMC8065974.

# ASSAY_COMMENT: Plasma and kidney pharmacokinetics after a single oral dose of CA in UUO mice
# Assay type: in vivo, mice (C57BL/6J)
# CONDITION_PARAMETERS: C57BL/6J, mouse; single oral dose of CA 25 mg/kg, 3 days-UUO mice, plasma, n = 3/time; read-out: Cmax (peak plasma concentration)
PROPERTY_MEASURED: Cmax (µM)

smiles_str=O=C(O)/C=C/c1ccc(O)c(O)c1 property_measured=Cmax obs_value=50.5
smiles_str=COc1cc(/C=C/C(=O)O)ccc1O property_measured=Cmax obs_value=68.3

---

# ASSAY_COMMENT: Plasma and kidney pharmacokinetics after a single oral dose of CA in UUO mice
# Type: in vivo, mice (C57BL/6J)
# CONDITION_PARAMETERS: C57BL/6J, mouse, plasma; single oral dose of CA 25 mg/kg, 3 days-UUO mice; read-out: Bioavailability F
PROPERTY_MEASURED: bioavailability (%)
Hi! Could you send only the number? It should be in %, unit omitted.

Can you share its bioavailability? I mean this compound: O=C(O)/C=C/c1ccc(O)c(O)c1
0.4

---

# ASSAY_COMMENT: Biodistribution of caffeic acid and ferulic acid after A. borbonica extract (UPLC-MS)
# Type: in vivo, mice (C57BL/6J)
# CONDITION_PARAMETERS: C57BL/6J, mouse, obstructed kidney, oral, 25 mg/kg; read-out: Concentration in obstructed kidney
PROPERTY_MEASURED: concentration at 24 h (nM)
Hi! Could you send only the number? It should be in nM, unit omitted.

Can you share its concentration at 24 h? I mean this compound: O=C(O)/C=C/c1ccc(O)c(O)c1 [Caffeic acid, caffeic acid]
144

---

# ASSAY_COMMENT: Plasma and kidney pharmacokinetics after a single oral dose of CA in UUO mice
# Format: in vivo, mice (C57BL/6J)
# CONDITION_PARAMETERS: C57BL/6J, mouse, contralateral kidney; single oral dose of CA 25 mg/kg, 3 days-UUO mice; read-out: concentration in contralateral kidney one hour after CA administration
PROPERTY_MEASURED: concentration at 1 h (nM)

compound="O=C(O)/C=C/c1ccc(O)c(O)c1 [Caffeic acid, caffeic acid]" obs_value=300
compound="COc1cc(/C=C/C(=O)O)ccc1O [Ferulic acid, ferulic acid]" obs_value=400

---

# ASSAY_COMMENT: Plasma and kidney pharmacokinetics after a single oral dose of CA in UUO mice
# Format: in vivo, mice (C57BL/6J)
# CONDITION_PARAMETERS: C57BL/6J, mouse, obstructed kidney; single oral dose of CA 25 mg/kg, 3 days-UUO mice; read-out: concentration in obstructed kidney one hour after CA administration
PROPERTY_MEASURED: concentration at 1 h (µM)

smiles_str=O=C(O)/C=C/c1ccc(O)c(O)c1 obs_value=5.3
smiles_str=COc1cc(/C=C/C(=O)O)ccc1O obs_value=4.5

---

# ASSAY_COMMENT: Plasma and kidney pharmacokinetics after a single oral dose of CA in UUO mice
# Type: in vivo, mice (C57BL/6J)
# CONDITION_PARAMETERS: C57BL/6J, mouse, plasma, po, 25 mg/kg, single oral dose of CA 25 mg/kg, 3 days-UUO mice, plasma; read-out: tmax
PROPERTY_MEASURED: tmax

Can you share its tmax? I mean this compound: O=C(O)/C=C/c1ccc(O)c(O)c1
≤ 30 min

---

# ASSAY_COMMENT: Biodistribution of caffeic acid and ferulic acid after A. borbonica extract (UPLC-MS)
# Type: in vivo, mice (C57BL/6J)
# CONDITION_PARAMETERS: C57BL/6J, mouse, liver, oral, 25 mg/kg; read-out: Concentration in liver
PROPERTY_MEASURED: concentration at 24 h (nM)

A. COc1cc(/C=C/C(=O)O)ccc1O
B. O=C(O)/C=C/c1ccc(O)c(O)c1
Lower value for measured concentration at 24 h? Options: A , B Identify your selection by its label.
B
(B: 37 nM, A: 426 nM)

---

# ASSAY_COMMENT: Plasma and kidney pharmacokinetics after a single oral dose of CA in UUO mice
# Type: in vivo, mice (C57BL/6J)
# CONDITION_PARAMETERS: C57BL/6J, mouse, obstructed kidney; single oral dose of CA 25 mg/kg, 3 days-UUO mice; read-out: AUC (0-360) in obstructed kidney (converted)
PROPERTY_MEASURED: AUC(0-t) (µM·h)

smiles_str=O=C(O)/C=C/c1ccc(O)c(O)c1 property_measured=AUC(0-t) readout_unit=µM·h obs_value=14.7
smiles_str=COc1cc(/C=C/C(=O)O)ccc1O property_measured=AUC(0-t) readout_unit=µM·h obs_value=17.9

---

# ASSAY_COMMENT: Plasma and kidney pharmacokinetics after a single oral dose of CA in UUO mice
# Type: in vivo, mice (C57BL/6J)
# CONDITION_PARAMETERS: C57BL/6J, mouse, plasma; single oral dose of CA 25 mg/kg, 3 days-UUO mice, 0 to 360 min; read-out: AUC (0-360) in plasma (converted)
PROPERTY_MEASURED: AUC(0-t) (µM·h)

smiles_str=COc1cc(/C=C/C(=O)O)ccc1O obs_value=77.5
smiles_str=O=C(O)/C=C/c1ccc(O)c(O)c1 obs_value=82.7
